Each entry below carries its reported MFI.
# Experimental target: T1, monkey SEMA4D, full length, on CHO-K1 cells (CHO-K1 cSEMA4D) (monkey)
# T1 construct: whole, on cells; also called monkey SEMA4D recombinant cells
# Method notes: FACS, CHO-K1 cSEMA4D cells; Ab 0.107 nM
Enter the number alone.

The following binders have reported results that may help.
# Binder, MFI
rows = [
    ("31G10C5 (antibody, V domains shown, Mouse monoclonal antibody purified from hybridoma supernatant on protein A) VH: EVQLQQSGAELVRPGASVKLSCTASGFNIKDDYIHWVKQRPEQGLEWIGWIDPANGHIEYASNFQAKATITADTSSNTAYLQLSSLTSEDTAVYYCTTGDYDGFTYWGQGTLVTVST VL: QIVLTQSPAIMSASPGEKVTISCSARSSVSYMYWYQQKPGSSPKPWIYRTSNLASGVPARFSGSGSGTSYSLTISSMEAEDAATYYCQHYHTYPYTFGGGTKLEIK", 1310),
    ("32C8F10 (antibody, V domains shown, Mouse monoclonal antibody purified from hybridoma supernatant on protein A) VH: EVQLQQSGAELVRPGASVKLSCTASGFNIKDEYIHWVKQRPEQGLEWIGWIDPANGHTEYASRFQAKATITADTSSNTAYLQLSSLTSEDTAVYYCTTGDYDGFAYWGQGTLVTVST VL: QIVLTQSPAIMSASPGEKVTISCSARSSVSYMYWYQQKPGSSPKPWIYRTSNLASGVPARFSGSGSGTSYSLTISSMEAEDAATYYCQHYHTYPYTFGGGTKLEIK", 1010),
    ("42B7G2 (antibody, V domains shown, Mouse monoclonal antibody purified from hybridoma supernatant on protein A) VH: QVQLQQSGAELARPGASVKLSCKASGYTFTDYGISWVKQRTGQGLEWIGEIYLRNDNSYYNEKFKGKATLTADKSSNTAYMELRSLTSEDSAVYFCARWGDHGNNYEDAMDYWGQGTSVTVSS VL: DIVLTQSPASLAMSLGKRATISCRASESVSIIGSNLIHWYQQKPGQPPKLLIYHASNLETGVPARFSGSGSRTDFTLTIDPVEEDDVAIYYCLQSRKVPYTFGGGTKLEIK", 793),
]

Entry 37F11F9 (antibody, V domains shown, Mouse monoclonal antibody purified from hybridoma supernatant on protein A) VH: EVQLQQSGPVLVKPGASVKMSCKASGYTFTDYYMNWVKQSHGKSLEWIGLINPYSGGSTFNQKFKAKATLTVDKSSSSAYMDLNSLTSEDSAVYYCARVGDGYYGVTHGMDYWGQGTSVTVSS VL: DIVMTPSQKFMSTTVGDRVSITCKASQNVGTAVAWYQQKPGQSPTILIYSASNRYTGVPDRFTGSGSGTDFTLTISNMKSEDLADYFCQQYYIYPFTFAAGTKLELK has what MFI?
300
